- experimentalTarget: sRAGE (ligand S-100b) (Homo sapiens, UniProt Q15109)
- Construct: extracellular domain can be isolated by proteolysis of RAGE to generate soluble RAGE (sRAGE) comprised of the V and C domains
- measurementNotes: ELISA assay: inhibition of sRAGE binding to plate-bound S100b
- studyConditions: sRAGE binding to immobilised S100b; concentration at which 50% signal has been inhibited
- Experimental: S100b, β-amyloid and CML (500 ng/100 μL/well) in 100 mM sodium bicarbonate/sodium carbonate buffer (pH 9.8) is loaded onto the wells of a NUNC Maxisorp flat bottom 96-well microtitre plate. The plate is incubated at 4° C. overnight. […] to 5 mL 50 mM imidazole buffer saline (pH 7.2) containing 0.2% bovine serum albumin and 1 mM CaCl2. […] The reaction is quenched with 10 μL of stop solution (0.5 N NaOH in 50% ethanol) and the absorbance is measured spectrophotometrically with a microplate reader at 405 nm.
resultType: IC50

A selection of reference data follows.
>>> assayvalue("CCCCn1c([C@H](N)Cc2ccc(OCc3ccccc3)cc2)nc2cc(OCCCN(CC)CC)ccc21 [Example 4]")
"1 to 5 µM"
>>> assayvalue("CCN(CC)CCCOc1ccc2nc([C@@H](Cc3ccc(OCc4ccccc4)cc3)NC(=O)OC(C)(C)C)n(Cc3ccccc3)c2c1 [Example 13]")
"5 to 10 µM"

Exam item: Please report the recorded IC50 for CCCCn1c([C@@H](Cc2ccc(OCc3ccccc3)cc2)NC(=O)OC(C)(C)C)nc2cc(OCCCN(CC)CC)ccc21 [Example 3] .
Marked response: 1 to 5 µM

Exam item: // next record CCCCn1c([C@@H](Cc2ccc(OCC)cc2)NC(=O)OC(C)(C)C)nc2ccc(OCCCN(CC)CC)cc21 [Example 8]
Marked response: 5 to 10 µM

Exam item: Same question for CCCn1c([C@H](N)Cc2ccc(OCc3ccccc3)cc2)nc2ccc(OCCCN(CC)CC)cc21 [Example 16] please.
Marked response: 5 to 10 µM

Exam item: Entry CCN(CC)CCCOc1ccc2nc([C@@H](Cc3ccc(OCc4ccccc4)cc3)NC(=O)OC(C)(C)C)n(CCCN(CC)CC)c2c1 [Example 10] please
Marked response: 1 to 5 µM

Exam item: What would you report for CCN(CC)CCCOc1ccc2nc([C@H](N)Cc3ccc(OCc4ccccc4)cc3)n(CCCN(CC)CC)c2c1 [Example 12] ?
Marked response: 1 to 5 µM

* * *

- experimentalTarget: sRAGE (ligand S-100b) (Homo sapiens)
- Construct: extracellular domain can be isolated by proteolysis of RAGE to generate soluble RAGE (sRAGE) comprised of the V and C domains
- measurementNotes: ELISA assay: inhibition of sRAGE binding to plate-bound S100b
- studyConditions: sRAGE binding to immobilised S100b; concentration at which 50% signal has been inhibited
resultType: IC50

>>> assayvalue("CCN(CC)CCCOc1ccc2nc([C@@H](Cc3ccc(OCc4ccccc4)cc3)NC(=O)OC(C)(C)C)n(CC)c2c1")
"1 to 5 µM"
>>> assayvalue("CCCCn1c([C@@H](Cc2ccc(OCc3ccccc3)cc2)NC(=O)OC(C)(C)C)nc2ccc(OCCCN(CC)CC)cc21")
"1 to 5 µM"
>>> assayvalue("CCN(CC)CCCOc1ccc2[nH]c([C@@H](Cc3ccc(OCc4ccccc4)cc3)NC(=O)OC(C)(C)C)nc2c1")
"10 to 20 µM"
>>> assayvalue("CCCCn1c([C@H](N)Cc2ccc(OCc3ccccc3)cc2)nc2ccc(OCCCN(CC)CC)cc21")
"1 to 5 µM"
>>> assayvalue("CCCn1c([C@@H](Cc2ccc(OCc3ccccc3)cc2)NC(=O)OC(C)(C)C)nc2ccc(OCCCN(CC)CC)cc21")
"5 to 10 µM"

Exam item: Value wanted: IC50 (sRAGE (ligand S-100b) (Homo sapiens)) of entry `CCCCn1c([C@@H](Cc2ccc(OCCc3ccc(Cl)cc3)cc2)NC(=O)OC(C)(C)C)nc2ccc(OCCCN(CC)CC)cc21`
Marked response: 0.5 to 1 µM

Exam item: Try the molecule `CCN(CC)CCCOc1ccc2[nH]c([C@H](N)Cc3ccc(OCc4ccccc4)cc3)nc2c1`
Marked response: 5 to 10 µM

Exam item: Same question, `CCN(CC)CCCOc1ccc2nc([C@H](N)Cc3ccc(OCc4ccccc4)cc3)n(Cc3ccccc3)c2c1` this time
Marked response: 5 to 10 µM

Exam item: Moving on to the next molecule: CCCCn1c(C(Cc2cccc(OCc3ccccc3)c2)NC(=O)OC(C)(C)C)nc2ccc(OCCCN(CC)CC)cc21 (stereo not drawn)
Marked response: 1 to 5 µM

* * *

- experimentalTarget: sRAGE (ligand Carboxymethyl Lysine (CML)) (Homo sapiens, UniProt Q15109)
- Construct: extracellular domain can be isolated by proteolysis of RAGE to generate soluble RAGE (sRAGE) comprised of the V and C domains
- measurementNotes: ELISA assay: inhibition of sRAGE binding to plate-bound CML
- studyConditions: sRAGE binding to immobilised CML; concentration at which 50% signal has been inhibited
IC50 overview

Exam item: # value lookup — system sRAGE (ligand Carboxymethyl Lysine (CML)) (Homo sapiens, UniProt Q15109), readout IC50, item CCCCn1c([C@@H](Cc2ccc(OCCc3ccc(Cl)cc3)cc2)NC(=O)OC(C)(C)C)nc2ccc(OCCCN(CC)CC)cc21 [Example 9]
Marked response: 0.5 to 1 µM

Exam item: Same question, CCN(CC)CCCOc1ccc2[nH]c([C@H](N)Cc3ccc(OCc4ccccc4)cc3)nc2c1 [Example 6] this time
Marked response: 1 to 5 µM

Exam item: // next record CCN(CC)CCCOc1ccc2nc([C@H](N)Cc3ccc(OCc4ccccc4)cc3)n(Cc3ccccc3)c2c1 [Example 14]
Marked response: 5 to 10 µM

* * *

- experimentalTarget: sRAGE (ligand Amyloid-β) (Homo sapiens, UniProt Q15109)
- Construct: extracellular domain can be isolated by proteolysis of RAGE to generate soluble RAGE (sRAGE) comprised of the V and C domains
- Sequence (Q15109 23-342 limits assumed): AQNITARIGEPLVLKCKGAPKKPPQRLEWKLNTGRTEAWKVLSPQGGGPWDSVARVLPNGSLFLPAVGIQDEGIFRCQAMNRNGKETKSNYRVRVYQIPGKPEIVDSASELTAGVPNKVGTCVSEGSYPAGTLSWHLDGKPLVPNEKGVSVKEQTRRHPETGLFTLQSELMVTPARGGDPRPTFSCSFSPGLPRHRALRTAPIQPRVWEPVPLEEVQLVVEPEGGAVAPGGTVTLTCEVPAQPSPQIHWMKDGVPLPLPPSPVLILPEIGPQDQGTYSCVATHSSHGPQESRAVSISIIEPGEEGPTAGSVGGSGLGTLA
- measurementNotes: ELISA assay: inhibition of sRAGE binding to plate-bound β-amyloid
- studyConditions: sRAGE binding to immobilised β-amyloid; concentration at which 50% signal has been inhibited
Below, each of the molecules is paired with its reported IC50 value.

Recorded IC50, per entry:
>>> assayvalue("CCCCn1c([C@@H](Cc2ccc(OCc3ccccc3)cc2)NC(=O)OC(C)(C)C)nc2ccc(OCCCN(CC)CC)cc21")
"1 to 5 µM"
>>> assayvalue("CCCCn1c(C(Cc2cccc(OCc3ccccc3)c2)NC(=O)OC(C)(C)C)nc2ccc(OCCCN(CC)CC)cc21 (stereo not shown)")
"1 to 5 µM"
>>> assayvalue("CCCCn1c([C@@H](Cc2ccc(OCC)cc2)NC(=O)OC(C)(C)C)nc2ccc(OCCCN(CC)CC)cc21")
"5 to 10 µM"

Exam item: Request - read-out IC50 | tested on sRAGE (ligand Amyloid-β) (Homo sapiens, UniProt Q15109) | molecule `CCCn1c([C@H](N)Cc2ccc(OCc3ccccc3)cc2)nc2ccc(OCCCN(CC)CC)cc21`
Marked response: 10 to 20 µM

* * *

- experimentalTarget: sRAGE (ligand Carboxymethyl Lysine (CML)) (Homo sapiens)
- Construct: extracellular domain can be isolated by proteolysis of RAGE to generate soluble RAGE (sRAGE) comprised of the V and C domains
- measurementNotes: ELISA assay: inhibition of sRAGE binding to plate-bound CML
- studyConditions: sRAGE binding to immobilised CML; concentration at which 50% signal has been inhibited
IC50: recorded values

>>> assayvalue("CCCn1c([C@H](N)Cc2ccc(OCc3ccccc3)cc2)nc2ccc(OCCCN(CC)CC)cc21")
"10 to 20 µM"
>>> assayvalue("CCN(CC)CCCOc1ccc2nc([C@@H](Cc3ccc(OCc4ccccc4)cc3)NC(=O)OC(C)(C)C)n(CCCN(CC)CC)c2c1")
"1 to 5 µM"
>>> assayvalue("CCCCn1c([C@@H](Cc2ccc(OCc3ccccc3)cc2)NC(=O)OC(C)(C)C)nc2cc(OCCCN(CC)CC)ccc21")
"1 to 5 µM"
>>> assayvalue("CCN(CC)CCCOc1ccc2nc([C@H](N)Cc3ccc(OCc4ccccc4)cc3)n(CCCN(CC)CC)c2c1")
"1 to 5 µM"
>>> assayvalue("CCCn1c([C@@H](Cc2ccc(OCc3ccccc3)cc2)NC(=O)OC(C)(C)C)nc2ccc(OCCCN(CC)CC)cc21")
"5 to 10 µM"

Here's the next entry for you.
Exam item: Requested field: IC50. Item: `CCN(CC)CCCOc1ccc2nc([C@@H](Cc3ccc(OCc4ccccc4)cc3)NC(=O)OC(C)(C)C)n(Cc3ccccc3)c2c1`
Marked response: 5 to 10 µM

* * *

- experimentalTarget: sRAGE (ligand Carboxymethyl Lysine (CML)) (Homo sapiens)
- Construct: extracellular domain can be isolated by proteolysis of RAGE to generate soluble RAGE (sRAGE) comprised of the V and C domains
- measurementNotes: ELISA assay: inhibition of sRAGE binding to plate-bound CML
- studyConditions: sRAGE binding to immobilised CML; concentration at which 50% signal has been inhibited
- Protocol: S100b, β-amyloid and CML (500 ng/100 μL/well) in 100 mM sodium bicarbonate/sodium carbonate buffer (pH 9.8) is loaded onto the wells of a NUNC Maxisorp flat bottom 96-well microtitre plate. The plate is incubated at 4° C. overnight. […] to 5 mL 50 mM imidazole buffer saline (pH 7.2) containing 0.2% bovine serum albumin and 1 mM CaCl2. […] The reaction is quenched with 10 μL of stop solution (0.5 N NaOH in 50% ethanol) and the absorbance is measured spectrophotometrically with a microplate reader at 405 nm.
Reported values of IC50 for individual entries

Record excerpt, results attached:
>>> assayvalue("CCCCn1c([C@@H](Cc2ccc(OCC)cc2)NC(=O)OC(C)(C)C)nc2ccc(OCCCN(CC)CC)cc21 [Example 8]")
"1 to 5 µM"
>>> assayvalue("CCCCn1c([C@H](N)Cc2ccc(OCc3ccccc3)cc2)nc2cc(OCCCN(CC)CC)ccc21 [Example 4]")
"1 to 5 µM"

Exam item: Using the record for CCCCn1c(C(Cc2cccc(OCc3ccccc3)c2)NC(=O)OC(C)(C)C)nc2ccc(OCCCN(CC)CC)cc21 (stereo not drawn) [Example 7] , report its IC50.
Marked response: 1 to 5 µM
